# Test Summary: NCI Yeast Anticancer Drug Screen. Data for the sgs1 strain (AID 173);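 further: 0% = growth of vehicle-only control cultures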
# Condition Details: S. cerevisiae sgs1 mutant, at 33.0 µM, stronger effect = higher value
The panel holds about 79,000 compounds, 15% with a hit somewhere; the sample as a whole holds those more often.
Measured Endpoint: growth inhibition (%)

[[record]]
molecular_string = "Cc1ccc(Nc2n[nH]c(=S)s2)cc1"
assay_result = 41

[[record]]
molecular_string = "COc1ccc(C(C#N)=C2C=CC(=NO)C=C2)cc1"
assay_result = 99

[[record]]
molecular_string = "S=c1[nH]c2c(Cl)c(Cl)c(Cl)c(Cl)c2[nH]1"
assay_result = 97

[[record]]
molecular_string = "C/C=C/[P+](c1ccccc1)(c1ccccc1)c1ccccc1"
assay_result = 61

[[record]]
molecular_string = "OCCN(CCO)c1ccc2c(c1)Cc1ccccc1-2"
assay_result = 44


---

Quick reference: growth inhibition of the listed items.
# Test Summary: NCI Yeast Anticancer Drug Screen. Data for the rad50 strain (AID 155);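 further: 0% = growth of vehicle-only cultures of the same strain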
# Condition Details: S. cerevisiae rad50 strain growth inhibition; at 1.2 µM; stronger effect = higher value
Compounds without any hit were thinned out: in the full panel of roughly 79,000, 15% have a hit.
Measured Endpoint: growth inhibition (%)

[[record]]
compound = "O=Nn1c2ccccc2c2cc([N+](=O)[O-])ccc21"
units_text = "%"
assay_result = 15

[[record]]
compound = "CC[C@@]1(OC(=O)CN(C)C)C(=O)OCc2c1cc1n(c2=O)Cc2cc3c(N)cccc3nc2-1"
units_text = "%"
assay_result = 68

[[record]]
compound = "Cc1ccc2c(ccc(/C=C/c3ccc(O)c4ncccc34)[n+]2C)c1"
units_text = "%"
assay_result = 1

[[record]]
compound = "O=C(Nc1cccc(C(F)(F)F)c1)Oc1ccc(Cl)cc1C(=O)c1ccccc1"
units_text = "%"
assay_result = 22

[[record]]
compound = "COc1cc(CNc2ccc(C(C)C)cc2)cc(OC)c1OC"
units_text = "%"
assay_result = 13

[[record]]
compound = "NNC(=S)Nc1cccc(Cl)c1"
units_text = "%"
assay_result = -33

[[record]]
compound = "c1ccc(N2N=C3N(c4ccccc4)C2N3c2ccccc2)cc1"
units_text = "%"
assay_result = 1

[[record]]
compound = "Cc1cccc2c1N=C(C(F)(F)F)CC2=O"
units_text = "%"
assay_result = 9

[[record]]
compound = "COC(=O)/C=C1/OC(c2ccc(Br)cc2)=C(Br)C1=O"
units_text = "%"
assay_result = -35

[[record]]
compound = "Cc1ccc(I)cc1N=C=S"
units_text = "%"
assay_result = 8

[[record]]
compound = "O=C(/C=C/c1cccc2ccccc12)c1ccc(Cl)cc1"
units_text = "%"
assay_result = 24

[[record]]
compound = "S=P(N1CC1)(N1CC1)N1CC1"
units_text = "%"
assay_result = -3

[[record]]
compound = "CNc1ccc(Cc2c[nH]c3ccccc23)cc1"
units_text = "%"
assay_result = -40

[[record]]
compound = "O=C1c2c(O)cccc2-c2nn(CCNCCO)c3ccc(NCCNCCO)c1c23"
units_text = "%"
assay_result = 26

[[record]]
compound = "C=C1N(C)c2ccc(Cl)cc2C1(C)C"
units_text = "%"
assay_result = 4

[[record]]
compound = "NCc1c(O)ccc2ccccc12"
units_text = "%"
assay_result = -11

[[record]]
compound = "C/C=C/[P+](c1ccccc1)(c1ccccc1)c1ccccc1"
units_text = "%"
assay_result = 50

[[record]]
compound = "COc1cc(/C=C/c2sc3ccccc3[n+]2C)ccc1N(C)C"
units_text = "%"
assay_result = -4

[[record]]
compound = "O=C(O)c1[nH]c(=O)c2ccccc2c1Nc1ccccc1"
units_text = "%"
assay_result = -3

[[record]]
compound = "CCC(=O)Oc1ccc(/C=N/NC(N)=S)nc1"
units_text = "%"
assay_result = -7

[[record]]
compound = "O=C(/C=N/O)Nc1cc(Cl)c(Cl)cc1Cl"
units_text = "%"
assay_result = -35

[[record]]
compound = "CC(=O)Oc1ccc(C(=O)c2ccccc2)c(O)c1"
units_text = "%"
assay_result = -4

[[record]]
compound = "CC(=O)[C@]1(O)Cc2c(O)c3c(c(O)c2[C@@H](OC2CC(N)C(O)C(C)O2)C1)C(=O)c1c(OCc2ccccc2)cccc1C3=O (stereo not given in full)"
units_text = "%"
assay_result = 14

[[record]]
compound = "CCCCCCCCCCCCCC(=O)OC(C)CCC1CCCO1 (stereo not given)"
units_text = "%"
assay_result = 1

[[record]]
compound = "Nc1nc2c(c(=O)[nH]1)NC(CCNc1ccc(C(=O)O)cc1)CN2 (stereo not given)"
units_text = "%"
assay_result = -3

[[record]]
compound = "CCCCCC#CCOC(=O)C(=[N+]=[N-])P(=O)(c1ccccc1)c1ccccc1"
units_text = "%"
assay_result = 14

[[record]]
compound = "OB(O)c1ccccc1C#Cc1ccccc1B(O)O"
units_text = "%"
assay_result = 7

[[record]]
compound = "Cc1ccc(N=Nc2ccc(O)c(C)c2)cc1"
units_text = "%"
assay_result = 9

[[record]]
compound = "O=S(=O)(N/N=C/c1cccc(Cl)c1)c1ccccc1"
units_text = "%"
assay_result = -1

[[record]]
compound = "O=[N+]([O-])c1cccc2nc3ccccc3c(NCCc3cccc[n+]3[O-])c12"
units_text = "%"
assay_result = 10

[[record]]
compound = "CCCCCC(=O)c1ccc(O)cc1O"
units_text = "%"
assay_result = -7

[[record]]
compound = "Oc1ccc(Br)cc1C=NC1CCCCC1"
units_text = "%"
assay_result = -14

[[record]]
compound = "O=C(Nc1ccc2c(c1)Cc1c-2ccc([N+](=O)[O-])c1F)C(F)(F)F"
units_text = "%"
assay_result = 2

[[record]]
compound = "CC(=O)c1cc2c(Cl)cc(Cl)cc2oc1=O"
units_text = "%"
assay_result = -24

[[record]]
compound = "N#CC(=S)Nc1cccc(Cl)c1"
units_text = "%"
assay_result = 5

[[record]]
compound = "S=C1SCN(CCc2ccccc2)CN1CCc1ccccc1"
units_text = "%"
assay_result = -12

[[record]]
compound = "Cc1cccc(/C=N\\NC(=S)N2CCCCC2)n1"
units_text = "%"
assay_result = 19

[[record]]
compound = "CC1=CCCC2C1(C)CCC(C)C2(C)Cc1cc(O)ccc1O (stereo not given)"
units_text = "%"
assay_result = -3

[[record]]
compound = "CN(C)CC1CCCc2ccccc2C1=O (stereo not given)"
units_text = "%"
assay_result = -5

[[record]]
compound = "CSc1s[s+]c(SC)c1-c1ccccc1"
units_text = "%"
assay_result = -3

[[record]]
compound = "COC(=O)c1ccc2c(c1)Cc1ccccc1-2"
units_text = "%"
assay_result = 2

[[record]]
compound = "Nc1ccc2c(c1)sc1ccccc12"
units_text = "%"
assay_result = -20

[[record]]
compound = "COC(=O)CSc1nnc(CSc2ccc(Cl)cc2)n1-c1ccccc1"
units_text = "%"
assay_result = 2

[[record]]
compound = "COc1ccc(N=Nc2ccc3oc(=O)c(C(=O)Nc4ccccc4)cc3c2)cc1"
units_text = "%"
assay_result = -2

[[record]]
compound = "S=c1[nH]nc(-c2ccc(Cl)cc2)s1"
units_text = "%"
assay_result = -6

